assay: small molecules captured by biotinylated probe aFGF10 – biochemical, small-molecule microarray, fluorescence 635/667, stem cell growth factor project, primary screen (AID 1071); conditions: higher = more signal;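 note: score merges 667 nm spot intensity and signal to noise from triplicate slides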
PROPERTY: composite z-score
The response must contain the number and no unit.

The following compounds have reported results that may help.
1. CC(C)N1CC=CC23O[C@@H]4C=CCOC(=O)[C@@H]4[C@H]2C(=O)N(CCCCCCO)[C@@H]3C1=O (some centres undefined)	1.07
2. CC(C)(C)N1CC=CC23O[C@@H]4C=CCCOC(=O)C4[C@H]2C(=O)N(CCCO)[C@@H]3C1=O (some centres undefined)	-0.642
3. CCCN1C(=O)[C@@]2(Cc3ccccc3)N=C(c3ccc(OCCCO)cc3)O[C@H]2c2ccccc21	0.186

Now let's try a different one.
Lookup: Requested read-out: composite z-score. Entry: COCCOC(=O)N1C(=O)[C@@]2(c3cc(C#Cc4ccc(OC)cc4)ccc31)[C@H](C(=O)N1CCc3cc(OC)c(OC)cc3C1)[C@H]1C(=O)O[C@H](c3ccccc3)[C@H](c3ccccc3)N1[C@@H]2c1ccc(OCCO)cc1
Found: 0.452

* * *

biological target: Pro-neuregulin-1, membrane-bound isoform (Homo sapiens) (UniProt Q02297); assay: small molecules binding neuregulin-1 protein – biochemical, small-molecule microarray, fluorescence 635/667, psychiatric disease protein project, primary screen (AID 1075); settings: NRG1 binding, 635 nm fluorescence, higher = more signal;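 note: score combines 667 nm spot fluorescence with signal to noise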
Sequence (Q02297 whole entry, looked up, canonical isoform): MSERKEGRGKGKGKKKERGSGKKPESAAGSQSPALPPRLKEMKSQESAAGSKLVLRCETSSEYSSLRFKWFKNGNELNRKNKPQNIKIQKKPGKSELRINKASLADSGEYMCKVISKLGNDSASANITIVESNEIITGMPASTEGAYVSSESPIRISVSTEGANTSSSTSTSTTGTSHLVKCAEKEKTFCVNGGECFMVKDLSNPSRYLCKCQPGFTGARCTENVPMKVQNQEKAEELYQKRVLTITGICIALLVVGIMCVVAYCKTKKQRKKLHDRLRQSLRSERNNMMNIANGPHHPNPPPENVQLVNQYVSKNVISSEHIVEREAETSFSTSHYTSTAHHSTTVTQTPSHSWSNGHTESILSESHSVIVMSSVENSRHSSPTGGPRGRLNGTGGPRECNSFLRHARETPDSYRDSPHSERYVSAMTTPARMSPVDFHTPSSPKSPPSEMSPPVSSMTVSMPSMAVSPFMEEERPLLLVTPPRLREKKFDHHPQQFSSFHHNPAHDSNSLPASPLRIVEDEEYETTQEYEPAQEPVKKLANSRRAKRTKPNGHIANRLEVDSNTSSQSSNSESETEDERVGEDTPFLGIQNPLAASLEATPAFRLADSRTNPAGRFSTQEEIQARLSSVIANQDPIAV
Documented composite z-score across a set of compounds
Give only the figure.

Lookup: Query: composite z-score; subject: CN(C)C(=O)[C@@]1(CCC(=O)OC(C)(C)C)COC(c2ccc(OCCCO)cc2)=N1
Found: 1.8

* * *

target: Concanavalin-A (Canavalia ensiformis) (UniProt P02866); assay: compounds binding concanavalin A lectin – biochemical, small-molecule microarray, Alexa647 label, 635 nm, artefact control for SMM control protein annotation, primary screen (AID 1127); conditions: ConA-A647 binding fluorescence, higher = more signal;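 note: z combines 667 nm emission intensity with signal-to-noise across three replicate slides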
Sequence (P02866 whole entry, looked up): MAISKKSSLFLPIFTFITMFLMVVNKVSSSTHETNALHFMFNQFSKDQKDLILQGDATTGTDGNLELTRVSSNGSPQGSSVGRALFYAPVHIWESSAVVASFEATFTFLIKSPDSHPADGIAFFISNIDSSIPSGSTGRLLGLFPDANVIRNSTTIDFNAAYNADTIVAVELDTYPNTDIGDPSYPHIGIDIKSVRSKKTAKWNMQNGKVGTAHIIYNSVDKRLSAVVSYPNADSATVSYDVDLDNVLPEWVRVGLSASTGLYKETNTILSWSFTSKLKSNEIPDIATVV
Binary classification by composite z-score, with 0.6 as an inclusive lower bound for condition met; all other cases are condition not met.

Use the examples below as a reference point.
1) C[N+](C)(C)CCCC[C@@H]1NC(=O)[C@@H]2C[C@H](C(=O)NCCCCCNC(=O)CS)[C@H](c3cccc(OCCO)c3)N2C1=O	condition met
2) O=C1O[C@H](c2ccccc2)[C@H](c2ccccc2)N2[C@H]1[C@@H](C(=O)N1CCCCCCC1)[C@]1(C(=O)Nc3ccc(C#CCCO)cc31)[C@H]2c1ccc(OCCO)cc1	condition met
3) COCCOC(=O)N1C(=O)[C@@]2(c3cc(C#CCNC(N)=O)ccc31)[C@H](C(N)=O)[C@H]1C(=O)O[C@H](c3ccccc3)[C@H](c3ccccc3)N1[C@@H]2c1ccc(OCCO)cc1	condition met
4) C/C=C/[C@@H](CCn1cc([C@H](O)c2ccccc2)nn1)[Si](C)(C)c1ccc(OC)cc1	condition not met

Lookup: Given the entry C[N+](C)(C)CCCCCCNC(=O)[C@H]1C[C@H]2C(=O)N3CCC[C@H]3C(=O)N2[C@H]1c1cccc(OCCO)c1 , answer whether its composite z-score meets or surpasses 0.6.
Found: condition met

* * *

assay: blood-stage malaria parasite viability loss – strain 3D7, DAPI fluorescence, 100 nL, primary screen (AID 1184);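 note: parasites grown inside human red blood cells in medium with human serum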; details: P. falciparum 3D7 growth, 3 d, higher = more signal
Label scheme, based on z-score: bucket A = under -1, bucket B = from -1 up to -0.2, bucket C = -0.2 and over

Some entries whose results are on file:
1) COC(=O)[C@@]1(Cc2ccccc2)[C@H]2c3cc(C(=O)N(C)C)n(Cc4ccc(O)c(OC)c4)c3C[C@H]2CN1C(=O)c1ccccc1	bucket A
2) C[C@]12C(=O)N(CCCCCO)[C@@H]3C(=O)N(c4ccc(Cl)cc4)CC=CC31O[C@@H]1/C=C\CCCOC(=O)C12 (some centres undefined)	bucket C
3) CC(C)C[C@@H]1NC(=O)[C@@]23C(=O)N[C@@H](Cc4ccccc4)C2[C@H](C)[C@@]2(C)O[C@H]2C3/C=C/C/C=C\CNC(=O)[C@@H]2CCCN2C1=O (some centres undefined)	bucket C
4) COCCOC(=O)N1C(=O)[C@@]2(c3cc(C#CCNC(N)=O)ccc31)[C@H](C(=O)N1CCCCCCC1)[C@H]1C(=O)O[C@H](c3ccccc3)[C@H](c3ccccc3)N1[C@@H]2c1ccc(OCCO)cc1	bucket A
5) COc1ccccc1CN1C(=O)c2ccccc2[C@@H](C(=O)NCC(C)C)[C@@H]1c1ccc(CO)cc1	bucket A
6) CCCCC(O)C1C=CC2C(=O)N(Cc3ccccc3)C(=O)C2N1n1cnnc1 (centres undefined)	bucket A

Lookup: Looking at COCCCNC(=O)[C@]1(Cc2ccccc2CN=[N+]=[N-])N=C(c2ccc(OCCCO)cc2)O[C@@H]1c1ccccc1CN=[N+]=[N-] , which class would you pick?
Found: bucket A

Lookup: Quick check: band for COc1ccc([Si](C)(C)[C@H]2[C@H](CCO)O[C@@]3(C(=O)N(Cc4cccc(N5CCOC5=O)c4)c4ccccc43)[C@@H]2C)cc1
Found: bucket A

* * *

experiment: probe aInhba binding on compound microarray – biochemical, small-molecule microarray, 635/667 nm fluorescence, primary screen (AID 1148); details: higher = more signal;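 note: score merges 667nm spot fluorescence with signal-to-noise for antibody binding to printed compounds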
Label yes (1) when composite z-score is at or above -0.03; anything below gets no (0).

Below are worked cases with known answers.
1. CC(C)(C)OC(=O)CC[C@]1(C(=O)O)COC(c2ccc(OCCCO)cc2)=N1	no (0)
2. Cc1ccc(S[C@]2(C(=O)NCC(C)C)CC(=O)N(C3CCCCC3)[C@@H]2c2ccc(CO)cc2I)cc1	yes (1)

Lookup: # check: composite z-score of CC(C)(C)OC(=O)CC[C@@]1(C(=O)N2CCCCC2)N=C(c2ccc(OCCCO)cc2)O[C@@H]1c1ccccc1N=[N+]=[N-] is greater than or equal to -0.03
Found: yes (1)

Lookup: # check: composite z-score of CCCCC=C[C@@H](NC(=O)CCc1ccccc1)c1ccccc1 is greater than or equal to -0.03
Found: yes (1)

Lookup: Please indicate if the recorded composite z-score for COc1ccc([Si](C)(C)[C@@H]2[C@@H](CCO)O[C@]3(C(=O)N(Cc4ccccc4)c4ccc(N5C(=O)COc6ccccc65)cc43)[C@H]2C)cc1 meets or exceeds -0.03.
Found: no (0)

* * *

biological target: Albumin (Bos taurus) (UniProt P02769); assay: compounds binding labelled BSA control protein – biochemical, small-molecule microarray, Alexa647 label, 635/667 nm fluorescence, artefact control for SMM control protein annotation, profiling panel (AID 1118); conditions: BSA-A647 binding, fluorescence 635 nm, higher = more signal;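 note: score merges 667 nm emission intensity and signal-to-noise per printed compound spot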
Sequence (P02769 whole entry, looked up): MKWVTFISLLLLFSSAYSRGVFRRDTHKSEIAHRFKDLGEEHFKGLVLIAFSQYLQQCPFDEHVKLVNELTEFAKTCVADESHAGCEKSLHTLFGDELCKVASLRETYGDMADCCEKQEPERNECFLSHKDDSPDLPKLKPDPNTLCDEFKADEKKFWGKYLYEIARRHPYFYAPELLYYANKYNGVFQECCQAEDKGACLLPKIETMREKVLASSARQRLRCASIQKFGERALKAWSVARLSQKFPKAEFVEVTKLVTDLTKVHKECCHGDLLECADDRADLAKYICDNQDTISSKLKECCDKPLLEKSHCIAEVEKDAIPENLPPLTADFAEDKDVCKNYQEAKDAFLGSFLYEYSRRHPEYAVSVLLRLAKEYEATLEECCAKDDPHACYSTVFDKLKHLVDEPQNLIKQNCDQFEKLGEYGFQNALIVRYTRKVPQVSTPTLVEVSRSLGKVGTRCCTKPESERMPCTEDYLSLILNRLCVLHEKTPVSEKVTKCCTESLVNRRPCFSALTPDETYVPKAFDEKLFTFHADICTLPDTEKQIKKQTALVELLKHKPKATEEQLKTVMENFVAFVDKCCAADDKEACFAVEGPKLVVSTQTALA
Would you please tag the item class 1 when its composite z-score is 0.3 or above, and class 0 when it is below?

Lookup: Determine whether this compound has composite z-score no lower than 0.3: O=C1N(CCS(=O)(=O)c2ccccc2)Cc2ccccc2C[C@@]12COC(c1ccc(OCCCO)cc1)=N2
Found: class 0

Lookup: Say whether O=C1O[C@H](c2ccccc2)[C@H](c2ccccc2)N2[C@H]1[C@@H](C(=O)N1CCCCCCC1)[C@]1(C(=O)Nc3ccc(C#CCCO)cc31)[C@H]2c1ccc(OCCO)cc1 shows composite z-score of 0.3 or more.
Found: class 1

Lookup: Is it the case that COC(=O)[C@@]1(Cc2ccc(F)cc2)[C@H]2c3cc(C(=O)N(C)C)n(Cc4ccc(C)c(F)c4F)c3C[C@H]2CN1C(=O)c1ccccc1 has composite z-score reaching or exceeding 0.3?
Found: class 1

Lookup: Check this compound for composite z-score at or above 0.3: COC(=O)C(CC#Cc1ccc2c(c1)[C@]1(C(=O)N2)[C@H](c2ccccc2OCCO)N2[C@H](c3ccccc3)[C@H](c3ccccc3)OC(=O)[C@H]2[C@@H]1C(=O)Nc1nc2ccccc2s1)C(=O)OC
Found: class 1

Lookup: Is it the case that COc1ccc(CCNC(=O)[C@@H]2c3ccccc3C(=O)N(Cc3ccccc3)[C@H]2c2ccc(CO)cc2)cc1 has composite z-score reaching or exceeding 0.3?
Found: class 0

Lookup: Given the entry Cc1ccc(-c2cccc(=O)o2)cc1 , answer whether its composite z-score meets or surpasses 0.3.
Found: class 0

Lookup: composite z-score >= 0.3 for COCC(=C=CC[C@@H](O)c1ccccc1OCCO)C[C@@H](O)c1ccccn1 ?
Found: class 0

* * *

Catalogue of composite z-score values
tested on: Human papillomavirus type 1a protein E7 (residues 44-93); assay: small molecules binding HPV E7 44-93 – biochemical, small-molecule microarray, residues 44-93, 635 nm fluorescence, primary screen (AID 1108); details: fluorescence 635 nm, higher = more signal;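 note: E7 fragment applied at 1 µg/mL in TBST for 1 h at 4 C; score combines spot fluorescence with its signal to noise ratio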
Enter a number only.

Lookup: Fill in: composite z-score of COCCOC(=O)N1C(=O)[C@@]2(c3cc(C#CCNC(N)=O)ccc31)[C@H](c1ccc(OCCO)cc1)N1[C@H](c3ccccc3)[C@H](c3ccccc3)OC(=O)[C@H]1[C@@H]2C(=O)N1CCN(c2ncccn2)CC1 is ___
Found: 1.23

Lookup: What measured composite z-score goes with COc1cc(C(O)C2C=CC3C(=O)N(C)C(=O)C3N2NC(=O)OC(C)(C)C)cc(OC)c1OC (centres undefined) ?
Found: 0.968

Lookup: Which composite z-score value is on record for CCN(CC)c1ccc(N2CC=CC34O[C@@H]5/C=C\CCCOC(=O)C5[C@H]3C(=O)N(CCCCCO)[C@@H]4C2=O)cc1 (some centres undefined) ?
Found: -0.592

Lookup: What does the record list as composite z-score for O=C1C[C@@](C(=O)O)(c2ccc([N+](=O)[O-])cc2)[C@@H](c2ccc(CO)cc2)N1CC12CC3CC(CC(C3)C1)C2 ?
Found: 1.4

Lookup: Look up composite z-score: CC[C@@H]1[C@@H]2C3C(=O)N(CC)C(=O)C3CC(=O)[C@@H]2[C@H](c2ccc(C)cc2)N1S(=O)(=O)c1ccc(C)cc1 (some centres undefined)
Found: 1.42

Lookup: Can you look up the measured composite z-score of COC(=O)[C@@]1(Cc2ccccc2)[C@H]2c3cc(C(=O)N(C)C)n(Cc4ccccn4)c3C[C@H]2CN1C(=O)c1ccccc1 for me?
Found: -0.271

Lookup: // query composite z-score value for entry COCCOC(=O)N1C(=O)[C@@]2(c3cc(C#CCCO)ccc31)[C@H](C(=O)N1CCc3cc(OC)c(OC)cc3C1)[C@H]1C(=O)O[C@H](c3ccccc3)[C@H](c3ccccc3)N1[C@@H]2c1ccc(OCCO)cc1
Found: 1.32

Lookup: For the compound O=c1c2ccc(Br)cc2nc(-c2ccccc2)n1Cc1cccc(O)c1 , what composite z-score is on record?
Found: -0.128

Lookup: # input compound: COC(=O)C(CC#Cc1ccc2c(c1)[C@]1(C(=O)N2)[C@H](c2ccccc2OCCO)N2[C@H](c3ccccc3)[C@H](c3ccccc3)OC(=O)[C@H]2[C@@H]1C(=O)Nc1nc2ccccc2s1)C(=O)OC ; wanted: its composite z-score
Found: 1.41

Lookup: Looking for the measured composite z-score of CCCCC(O)C1C=CC2C(=O)N(Cc3ccccc3)C(=O)C2N1n1cnnc1 (centres undefined) , can you help?
Found: 1.13

Lookup: Record request: composite z-score value, item COCCOC(=O)N1C(=O)[C@@]2(c3cc(C#CC4(O)CCCCCC4)ccc31)[C@H](C(=O)N1CCc3cc(OC)c(OC)cc3C1)[C@H]1C(=O)O[C@H](c3ccccc3)[C@H](c3ccccc3)N1[C@@H]2c1ccccc1OCCO
Found: 1.04

Lookup: Need composite z-score of N#Cc1ccc(NN2C(C(O)c3ccco3)C=CC3C(=O)N(c4ccccc4)C(=O)C32)cc1 (centres undefined) , thanks.
Found: -0.345

Lookup: Can you look up the measured composite z-score of C=C(/C(=C/C[C@@H](OC(=O)c1ccncc1)c1ccccc1OCCO)c1cnc2ccccc2c1)C(C)C for me?
Found: 1.4

Lookup: Entry C[N+](C)(C)CCCC[C@@H]1NC(=O)[C@@H]2C[C@H](C(=O)O)[C@H](c3cccc(OCCO)c3)N2C1=O has what composite z-score?
Found: 0.17
